assay: Half-life for the conversion of compound to ketone, was examined by 19F NMR spectroscopy in human blood plasma, at 37 degree Centigrade.; type: ADME, tissue-based
assayReadout: half-life (min)

Here is how some molecules turned out for half-life.
| entrySmiles | half-life / min |
| --- | --- |
| CC(=O)O/C(=C(/NC(=O)[C@@H]1CCCN1C(=O)[C@@H](NC(=O)c1ccc(C(=O)N2CCOCC2)cc1)C(C)C)C(C)C)C(F)(F)F | 15 |
| CC(=O)O/C(=C(/NC(=O)[C@@H]1CCCN1C(=O)[C@@H](NC(=O)c1ccc(C(=O)N2CCOCC2)cc1)C(C)C)C(C)C)C(F)(F)C(F)(F)F | 25 |

a: CC(=O)O/C(=C(\NC(=O)[C@@H]1CCCN1C(=O)[C@@H](NC(=O)c1ccc(C(=O)N2CCOCC2)cc1)C(C)C)C(C)C)C(F)(F)C(F)(F)F
b: CC(=O)O/C(=C(/NC(=O)[C@@H]1CCCN1C(=O)[C@@H](NC(=O)c1ccc(C(=O)NS(=O)(=O)c2ccc(Cl)cc2)cc1)C(C)C)C(C)C)C(F)(F)F
// select label with min value of measured half-life from [ a , b ] Select an item and report its label.
b
(b: 10 min, a: 40 min)
